runDescription: gradient 5% acetonitrile 3 min, to 50% in 2 min, to 85% in 15 min, held 3 min, 100 µL/min
settings: column: Zorbax Extend-C18 2.1 x 50 mm; eluents: water / acetonitrile, 0.1% formic acid
endpointLabel: RP-LC retention time (s)

compound	endpointLabel	measurement
Cc1ccc(Cn2c(=O)n(CCNC(=O)c3ccco3)c3ncccc32)cc1	RP-LC retention time	760
Cc1nn(C)c2nc(OC(C)C(=O)NCc3ccccc3Cl)cc(C(F)(F)F)c12 (stereo not given)	RP-LC retention time	1020
Cc1nnc2ccc(N3CCN(C(=O)COc4ccc5c(c4)OCO5)CC3)nn12	RP-LC retention time	617
CCn1c(=O)c(N2CCN(C(=O)Nc3ccc(Br)cc3F)CC2)nc2cccnc21	RP-LC retention time	1000
O=C(O)c1ccc(NCCCO)c([N+](=O)[O-])c1	RP-LC retention time	587
COC(=O)c1c(C)[nH]c(C(=O)N2CCCC(C(=O)NC3CCCCCC3)C2)c1C (stereo not given)	RP-LC retention time	794
CCC(CC)C(=O)Nc1c(-c2ccc(OC)cc2)nc2cc(C)ccn12	RP-LC retention time	672
Cc1ccc(NC(=O)Cn2c(C)nc3cc4c(cc32)OCCO4)c(C)c1	RP-LC retention time	668
COc1ccc(NC(=O)Cn2cc(-c3ccccc3C)c(N3CCOCC3)n2)c(OC)c1	RP-LC retention time	959
Cc1ccsc1C(=O)Nc1cnc(-c2cccc(Cl)c2)nc1	RP-LC retention time	1130

Ref: the METLIN SMRT retention time set (Domingo-Almenara et al. 2019)
